tested on: HCT-116 colon; assay: NCI tumour cell line growth inhibition, 48 h
reported.endpoint: TGI

>>> df
                                   compound  target_or_system  recorded_measurement
0  CC1Oc2cc3c(-c4c(O)cc(O)c5c(O)c6c(cc45)OC(C)C(C)C6=O)c(O)cc(O)c3c(O)c2C(=O)C1C (centres undefined)     HCT-116 colon              0.289 µM
1  COc1ccc2c(c1)CCC1C2CCC2(C)C1CCC2(O)CNC(=O)CCCCC1CCSS1 (centres undefined)     HCT-116 colon              > 100 µM
2   CCCCCCn1c(SCC)c2ccccc2c1-c1nc(F)nc(F)n1     HCT-116 colon              > 100 µM
3  CC(=O)OCC(=O)[C@@]1(O)CC[C@H]2[C@@H]3CCC4=CC(=O)[C@H](C)C[C@]4(C)[C@H]3[C@@H](O)C[C@@]21C     HCT-116 colon              > 100 µM

----------
test system: HCC-2998 colon; assay: NCI tumour cell line growth inhibition, 48 h
Where a SMILES comes first, the peptide text is derived from it. The star is where a group is joined. Cbz = O=C(OCc1ccccc1)*; OBn = c1ccc(CO*)cc1

compound	limit.operator	TGI [µM]
COc1cc2cc(Oc3ccc(NC(=O)Nc4ccc(Cl)c(C(F)(F)F)c4)cc3)c(C)nc2cc1OCCN1CCCCC1	=	3.46
COc1ccc(/C=C2/C(C)=NN(c3cccc(Cl)c3)/C2=N/c2nc3ccccc3s2)cc1	=	33.2
COC(=O)CNC(=O)C(C)NC(=O)C(CC(=O)OCc1ccccc1)NC(=O)OCc1ccccc1 (stereo not drawn) (Cbz-Asp(OBn)-Ala-Gly-OMe; configuration not given here)	>	100
CN(C)CCCNC(=O)c1cc(NC(=O)CCNS(=O)(=O)c2ccc3c(c2)C(=O)c2ccccc2C3=O)cn1C	>	100

----------
Each record here notes measured TGI.
test system: OVCAR-4 ovarian; assay: NCI tumour cell line growth inhibition, 48 h
reported.endpoint: TGI

In [3]: df
Out[3]:
                                    compound  reported_endpoint  recorded_measurement
 0  OCC1OC(n2ccc3c2ncn2ncnc32)C(O)C1O (configuration not stated)                TGI               63.1 µM
 1  Cc1ccc(C(=O)Nc2ccc(S(=O)(=O)O)c3cc(S(=O)(=O)O)cc(S(=O)(=O)O)c23)cc1NC(=O)c1cccc(N)c1                TGI              > 100 µM
 2                   CCc1nnc(CC)n1NCCCC(=O)O                TGI              > 100 µM
 3  CC12CCC=CC1CCC1C2CCC2(C)C(c3ccc(=O)oc3)CCC12O (configuration not stated)                TGI              0.641 µM
 4  NC1CC(=O)c2cc(Cl)sc21 (configuration not stated)                TGI              > 100 µM
 5                            NCCCCNCCCN1CC1                TGI              0.733 µM
 6  C[C@H]1[C@H](C)N(Cc2ccccc2)P(=O)(C(O)/C=C/c2ccccc2)N1Cc1ccccc1 (some centres not stated)                TGI                 15 µM
 7   Fc1ccc2[nH]cc(Cc3c[nH]c4ccc(F)cc34)c2c1                TGI              > 100 µM
 8  CC(=O)OC1c2ccccc2CC2(OC(C)=O)c3ccccc3C12 (configuration not stated)                TGI              > 100 µM
 9       CC(C)=CCOc1cc(NC(=S)c2ccoc2C)ccc1Cl                TGI              > 100 µM
10  CC1=C(C(=O)OCc2ccccc2)C(c2ccc3c(c2)OCO3)n2c(nc3ccccc32)N1 (configuration not stated)                TGI              > 100 µM
11  O=C(CCn1[nH]c(=O)c(Cl)c(Cl)c1=O)NOCCCc1ccccc1                TGI              > 100 µM

----------
test system: IGROV1 ovarian; experiment: NCI tumour cell line growth inhibition, 48 h
reported.endpoint: TGI

>>> df
                                    compound  target_or_system  reported_endpoint  recorded_measurement
 0  COC(=O)CCC(=O)N1Cc2cc(C)ccc2N(C(=O)CCC(=O)OC)Cc2cc(C)ccc21    IGROV1 ovarian                TGI              > 100 µM
 1                        CC#COP(=O)(OCC)OCC    IGROV1 ovarian                TGI              > 100 µM
 2    CSc1nnc(CCSc2ccnc3c(C(F)(F)F)cccc23)o1    IGROV1 ovarian                TGI              > 100 µM
 3       Cc1c2cnccc2c(C)c2c1[nH]c1ccc(O)cc12    IGROV1 ovarian                TGI               > 10 µM
 4  Nc1ccn(C2CC(O)C(COP(O)(=S)OC3CC(n4ccc(N)nc4=O)OC3CO)O2)c(=O)n1 (stereo not given)    IGROV1 ovarian                TGI              > 100 µM
 5   COc1ccc(/C=C(\Cl)c2ccc(OC)c(OC)c2)cc1OC    IGROV1 ovarian                TGI              > 100 µM
 6  O=C(NC(C(F)(F)F)(C(F)(F)F)P(=O)(c1ccccc1)c1ccccc1)C(C(F)(F)F)C(F)(F)F    IGROV1 ovarian                TGI               57.7 µM
 7  NC(=O)C(Nc1c(Cl)cccc1Cl)c1cc2cc(Br)ccc2nc1Cl (stereo not given)    IGROV1 ovarian                TGI              > 100 µM
 8  Cc1ccc(C(=O)Nc2ccc(S(=O)(=O)O)c3cc(S(=O)(=O)O)cc(S(=O)(=O)O)c23)cc1NC(=O)c1cccc(N)c1    IGROV1 ovarian                TGI              > 100 µM
 9  O=C1CSC2(CC(/C=C/c3ccccc3O)=NN2c2cccc(S(=O)(=O)O)c2)N1c1nc2ccccc2s1 (stereo not given)    IGROV1 ovarian                TGI              > 100 µM
10  CCOC(=O)c1cc(Sc2ccc(N)c(C(=O)OCC)c2)ccc1N    IGROV1 ovarian                TGI              > 100 µM
11  CCOC(=O)/C(O)=C(/C=N\C(=S)Nc1ccccc1Cl)C(=O)OCC    IGROV1 ovarian                TGI              > 100 µM
12  C=CCC(N[C@H](CO)C(C)C)c1cn(C(=O)OCC)c2ccccc12 (stereo not given in full)    IGROV1 ovarian                TGI               57.1 µM
13  Fc1c(F)c(C(F)(F)F)c(F)c(F)c1N/N=C\c1c[nH]c2ccccc12    IGROV1 ovarian                TGI               10.4 µM
14  O=S(=O)(c1ccc(NC(=S)NCc2cccnc2)cc1)N1CCCCC1    IGROV1 ovarian                TGI              > 100 µM

----------
test system: DMS 114 small cell lung; experiment: NCI tumour cell line growth inhibition, 48 h
reported.endpoint: TGI

In [3]: df
Out[3]:
                                   molecule  reported_endpoint  recorded_measurement
0                Cc1c2ccncc2cc2c1sc1ccncc12                TGI               21.6 µM
1  CC1CC2C(=O)NC(=O)C2c2[nH]c3ccccc3c21 (configuration not stated)                TGI              > 100 µM
2  C=C1C(=O)OC2CC3(C)C=CC(=O)C(=C)C3CC12 (configuration not stated)                TGI               9.57 µM
3  COC12C=CC(CC1)c1c(O)ccc(O)c12 (configuration not stated)                TGI              > 100 µM
4  COc1ccc(Br)c2c1CC(C(=O)O)CC2 (configuration not stated)                TGI              > 100 µM
5  O=C(NCCCCCCNC(=O)c1cccc2ccccc12)c1cccc2ccccc12                TGI              > 100 µM
6                 CCOC(=O)CSc1ccnc(=O)[nH]1                TGI              > 100 µM
